Overview of recorded Kd for various binders
Molecular target: T1, recombinant human IGF-II (Insulin-like Growth Factor II) (human, UniProt P01344 25-91, biotinylated (Biotinyl-IGF-II, GroPep) where immobilised in SPR, site not stated; not biotinylated in ITC and as SPR analyte)
T1 construct: also called IGF2; IGF-2
T1 sequence (P01344 25-91 limits assumed): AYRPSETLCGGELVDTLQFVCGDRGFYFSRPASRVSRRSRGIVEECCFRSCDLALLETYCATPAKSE
Assay: SPR, IGF-II immobilised, kinetic fit
Outcome measure: Kd (nM)

# Binder, Outcome measure, Unit annotation, Value
measured = [
    ("IGF2R domain 11 with arginine at position 1544 (E1544R) (receptor) NEHDDCQVTNPSTGHLFDLSSLSGRAGFTAAYSRKGLVYMSICGENENCPPGVGACFGQTRISVGKANKRLRYVDQVLQLVYKDGSPCPSKSGLSYKSVISFVCRPEAGPTNRPMLISLDKQTCTLFFSWHTPLACEQATHHHHHH", "Kd", "nM", 17.8),
    ("IGF2R domain 11 with proline at position 1544 (E1544P) (receptor) NEHDDCQVTNPSTGHLFDLSSLSGRAGFTAAYSPKGLVYMSICGENENCPPGVGACFGQTRISVGKANKRLRYVDQVLQLVYKDGSPCPSKSGLSYKSVISFVCRPEAGPTNRPMLISLDKQTCTLFFSWHTPLACEQATHHHHHH", "Kd", "nM", 234),
]
